assay.target: S1P1/EDG1 (Homo sapiens, UniProt P21453)
Sequence (P21453 whole entry): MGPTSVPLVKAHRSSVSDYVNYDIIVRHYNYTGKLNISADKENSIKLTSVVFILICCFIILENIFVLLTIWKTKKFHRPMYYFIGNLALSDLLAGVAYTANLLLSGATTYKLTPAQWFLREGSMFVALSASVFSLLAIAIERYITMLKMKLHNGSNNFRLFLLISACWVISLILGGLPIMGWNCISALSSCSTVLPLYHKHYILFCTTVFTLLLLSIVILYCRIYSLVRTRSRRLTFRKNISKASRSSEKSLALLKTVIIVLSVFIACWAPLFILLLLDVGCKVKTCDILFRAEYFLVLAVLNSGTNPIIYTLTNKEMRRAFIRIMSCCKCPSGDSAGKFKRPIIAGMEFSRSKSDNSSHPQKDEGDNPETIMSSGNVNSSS
measurement.protocol: S1P1 CRE-bla CHOK1 reporter assay (inhibition of Forskolin induced cAMP)
Format: cell-based
measurement.parameters: agonist activity range, Table 2; read-out: S1P1 ACTIVITY
measured.attribute: EC50

Incoming: Any idea what EC50 was measured for CC(C)Oc1ccc(-c2nnc(-c3cccc4c3CC[C@@H]4NCC(=O)N3CCOCC3)s2)cc1C#N [Compound 24] ?
Outgoing: 500 to 5000 pM

Incoming: Same for "CC(C)Oc1ccc(-c2ncc(-c3cccc4c3CC[C@@H]4NC(=O)N3CCC(N(C)C)CC3)s2)cc1C#N"
Outgoing: > 5000 pM

Incoming: Same for CC(C)Oc1ccc(-c2ncc(-c3cccc4c3CC[C@@H]4NC(=O)N3CCC[C@H](O)C3)s2)cc1C#N [Compound 199]
Outgoing: 50 to 500 pM

---

assay.target: S1P1/EDG1 (Homo sapiens)
measurement.protocol: S1P1 CRE-bla CHOK1 reporter assay (inhibition of Forskolin induced cAMP)
Type: cell-based
measurement.parameters: agonist activity range, Table 2; read-out: S1P1 ACTIVITY
pEC50: −log10 of the molar value.
measured.attribute: pEC50

Incoming: Reported pEC50 for S1P1/EDG1 (Homo sapiens), given CC(C)Oc1ccc(-c2ncc(-c3cccc4c3CCC4NS(C)(=O)=O)s2)cc1C#N (stereo in doubt) ?
Outgoing: 9.30 to 10.30

Incoming: For "CC(C)Oc1ccc(-c2ncc(-c3cccc4c3CC[C@@H]4NS(=O)(=O)CCN3CCC(N(C)C)CC3)s2)cc1C#N" then?
Outgoing: < 8.30

Incoming: Then "CC(C)Oc1ccc(-c2nnc(-c3cccc4c3CC[C@@H]4NCC(=O)O)s2)cc1C#N" ?
Outgoing: 9.30 to 10.30

Incoming: What would you report for CC(C)Oc1ccc(-c2nnc(-c3cccc4c3CCC4NC(=O)N3CC[C@H](N(C)C)C3)s2)cc1C#N (stereo in doubt) ?
Outgoing: 8.30 to 9.30

---

For each of the compounds below, state its EC50.
assay.target: S1P1/EDG1 (Homo sapiens, UniProt P21453)
measurement.protocol: S1P1 CRE-bla CHOK1 reporter assay (inhibition of Forskolin induced cAMP)
Format: cell-based
measurement.parameters: agonist activity range, Table 2; read-out: S1P1 ACTIVITY

Incoming: Fill in: EC50 of CC(C)Oc1ccc(-c2ncc(-c3cccc4c3CC[C@@H]4NC(=O)N3CCN(C)CC3)s2)cc1C#N [Compound 190] is ___
Outgoing: 0.5 to 5 nM

Incoming: And what about the compound "CC(C)Oc1ccc(-c2ncc(-c3cccc4c3CC[C@@H]4NS(=O)(=O)CCN3CCC(CO)CC3)s2)cc1C#N" ?
Outgoing: 0.5 to 5 nM

Incoming: Also CC(C)Oc1ccc(-c2nnc(-c3cccc4c3CCC4NS(C)(=O)=O)s2)cc1C#N (stereo in doubt) ?
Outgoing: 0.05 to 0.5 nM

Incoming: Proceed to CC(C)Oc1ccc(-c2ncc(-c3cccc4c3CC[C@@H]4NC(=O)N3CC(O)C3)s2)cc1C#N [Compound 170]
Outgoing: 0.5 to 5 nM

Incoming: Same thing, different compound: "CC(C)Oc1ccc(-c2nnc(-c3cccc4c3CC[C@H]4NC(=O)N(C)C)s2)cc1C#N"
Outgoing: 0.05 to 0.5 nM

Incoming: Try "CC(C)Oc1ccc(-c2nnc(-c3cccc4c3CC[C@@H]4NS(=O)(=O)CC(=O)N(C)C)s2)cc1C#N" next.
Outgoing: 0.05 to 0.5 nM

Incoming: What do you get for "CC(C)Oc1ccc(-c2ccc(-c3cccc4c3CC[C@H]4N)s2)cc1C#N" ?
Outgoing: > 5 nM

Reference for the values: patent US8507538B2
